- target system: MRGPRX2-MUT (MRGPRX2 N62S mutation) (Homo sapiens, UniProt Q96LB1, N62S)
- Construct: expressed in transfected cells
- Sequence (Q96LB1 whole entry N62S): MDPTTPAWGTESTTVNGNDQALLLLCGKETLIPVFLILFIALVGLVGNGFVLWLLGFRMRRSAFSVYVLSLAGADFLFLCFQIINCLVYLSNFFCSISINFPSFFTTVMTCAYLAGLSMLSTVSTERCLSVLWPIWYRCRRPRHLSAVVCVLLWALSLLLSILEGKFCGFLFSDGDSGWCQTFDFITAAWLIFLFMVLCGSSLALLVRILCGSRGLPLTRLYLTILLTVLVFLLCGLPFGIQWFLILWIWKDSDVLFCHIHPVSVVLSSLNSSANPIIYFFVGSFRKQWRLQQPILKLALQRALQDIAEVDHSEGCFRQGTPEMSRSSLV
- assay name: Primary HTS, Ca2+ mobilization (fluorescence ratio, B-score) in HEK293-Gα15 cells stably expressing the MRGPRX2 N62S mutation
- Format: cell-based
- test parameters: 10 μM compound, MRGPRX2-MUT (N62S) cells, Supplementary Table 1
Counter-ions that a name gives are not always drawn.
Answer each item with its documented B-scores (MUT).

Given item CN(C)CCc1c[nH]c2ccc(CS(=O)(=O)N3CCCC3)cc12 , the value recorded as its B-scores (MUT) is 2.98

Given item CC(CN(C)C)CN1c2ccccc2Sc2ccccc21.CC(CN(C)C)CN1c2ccccc2Sc2ccccc21.O=C(O)C(O)C(O)C(=O)O (stereo not drawn) [Trimeprazine Tartrate] , the value recorded as its B-scores (MUT) is 19.11

Given item CN1CCC(=C2c3ccccc3CC(=O)c3sccc32)CC1 [Ketotifen Fumarate] , the value recorded as its B-scores (MUT) is 0.81

Given item Cc1ccc(/C(=C\CN2CCCC2)c2ccccn2)cc1.Cl [Triprolidine Hydrochloride] , the value recorded as its B-scores (MUT) is 0.68

Given item CC(=O)O.CC(=O)O.CC[C@H](C)C[C@H](C)CCCCCCCCC(=O)N[C@H]1C[C@@H](O)[C@@H](NCCN)NC(=O)[C@@H]2[C@@H](O)CCN2C(=O)[C@H]([C@H](O)CCN)NC(=O)[C@H]([C@H](O)[C@@H](O)c2ccc(O)cc2)NC(=O)[C@@H]2C[C@@H](O)CN2C(=O)[C@H]([C@@H](C)O)NC1=O [Caspofungin acetate] , the value recorded as its B-scores (MUT) is 16.90

Given item C[C@H]1COc2c(N3CCN(C)CC3)c(F)cc3c(=O)c(C(=O)O)cn1c23 , the value recorded as its B-scores (MUT) is 0.74
